system: RARg:RXRa (NR concentration 270 nM, RXRa partner concentration 90 nM); assay: PBM binding z-score (relative to random genomic background probes); higher = stronger binding; sequences stand for … in GC…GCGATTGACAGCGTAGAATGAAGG
Tag: yes if measured PBM binding z-score is not below 1, no if it is.

* ACTAGCAGGCCAAGGGTCACTCACGATTAGTCCG | yes
* CGGCCTAGGTCAGGGCCAGTATAGGAGGAACGTT | yes
* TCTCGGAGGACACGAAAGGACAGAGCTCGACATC | yes
* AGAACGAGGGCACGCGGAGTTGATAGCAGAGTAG | yes
* GCGACTGGGGCAAAGCAGGTTAACATAAGGTTGG | no
* TCTGCTAGGACAGTTGGTCAGCTAACGAGCTGCC | no
* GATACAGGGTCAGCTGGAGGCCAGAGTATGGAAA | yes
* TAGAGTAGGTTAGGGGCATTCAGAATGGCGTCGA | yes
* TAGCCTAGGTCAGGCGGGCCAGTATAGTGTCGGC | yes
* ATCTCTAGGTAAAGGTTCAGTGAATCCCGAGGAT | yes
* ATACCAAGGTGATCGTGAGGTCGTCGATACTAAC | yes
* TCTTGTAGATCAAGCAGGATAAGAAAGCCTGAGT | no
* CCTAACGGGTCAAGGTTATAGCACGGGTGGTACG | yes
* CCGACTGGGGCAGGAAGGTTACCATACCATCCGG | no
* GGAACGAGGGCAAGTTGATAGCCGAGTTTGATGG | yes
* ATCTCAAGGTAACAAGTTCAGTGAAAGAGAGGAC | yes
* CCTAGCTGGTCAGGAGGTCACACACCGGATATGA | yes
* TTACCAAGGTGAGCTGTGGTCGTTGATCCAACTC | no
* AATACAGGATCATCGTAGGCCAGAGTACGCACAG | no
* ATCGAAAGGTCTACGAGGTGAGTATACACCGTTT | yes
* ATCTCTTGGTAACCAAGTTCAGTGAATGCCGAAC | no
* TTTAGCAGGCCAGAGGGTCACTCAAGAGGTACGG | yes
* AATATTAGTTGACTTAGGGCAACCGATACGACGC | no
* TTACCAAGGTGAGGGTCGTTGATCCCTCTGTAGA | no
* ATCTCTAGGTAAAGTTAGTTCAGTGAATGCAAAT | no
* ATCGAAAGGTCGACGAGGTGAGCATACACCGTTT | yes

====

system: RARb homodimer (NR concentration 270 nM); experiment: PBM binding z-score (relative to random genomic background probes); higher = stronger binding; sequences stand for … in GC…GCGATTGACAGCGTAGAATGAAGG
readout_kind: PBM binding z-score

• CGAACTAGGTAATCCAGGACAGTGAATACATTGA = -0.194
• AGTCAAAGTTCACTAGGTAACGTAAGATTCAGCT = 3.81
• AGAATGAGGTTATTAAGGTCAGGGAATTGCGGTC = 4.31
• ATCTCAAGGTAAAAGTTCAGTGAATCCCGAGGAT = 2.4
• TCATATAGGTAAACAGCTGAAAGTCCGTAAGTTA = 0.0749
• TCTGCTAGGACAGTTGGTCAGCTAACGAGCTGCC = -0.304
• TGAATGAGGTTATAAGATCAAGGAACGTTGCAAA = 0.308
• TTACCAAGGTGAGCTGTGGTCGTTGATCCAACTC = 0.173
• TCTGCTAGGTCACCGATGGTCAGCTAATCTGCTA = 3.6
• CCTACTGGGCCACGAAAGGTCATGGATTCAGTGA = 4.94
• ACTAGTTGGTCAGCTGAGGACACACACAATTCGG = 1.64
• TCAGATAGGTAAATGCTAGGTGAAAGTCCGATCT = 0.292
• CCTGCTGGGCCAAAAAGGTCATTGATGCCGATAA = 4.32
• AGAACGAGGGCACGCTGAGTTGATAGGAGAGTAG = 1.22
• CAAACTAGGTCACAGAGGTCATAGTCCGTGCGTA = 5.33
• CCTAGTTGGTCAAGGCCACACACGCTATAGGTAC = 1.52
